molecular target: huCTLA4 (Homo sapiens, UniProt P16410); experiment: Flow binding to CHO cells stably expressing CTLA4; design: huCTLA4 and huPD-L1, full-length mammalian surface expression constructs were generated; expressed in transfected cells; host or cells: CHO cells, lentiviral transduction, sorted to >98% purity; conditions: Table E19; CHO cells stably expressing CTLA4; 33.3 nM
Sequence (P16410 36-223): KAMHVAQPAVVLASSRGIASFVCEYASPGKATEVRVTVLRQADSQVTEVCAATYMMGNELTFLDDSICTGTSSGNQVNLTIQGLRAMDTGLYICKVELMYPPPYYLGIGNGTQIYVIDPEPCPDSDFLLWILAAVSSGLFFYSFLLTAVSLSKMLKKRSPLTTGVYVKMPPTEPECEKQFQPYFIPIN
readout label: CTLA4 MFI at 33.3 nM
Form field (numeric): enter value without unit.

[[record]]
molecule = "M47V/V68M (protein) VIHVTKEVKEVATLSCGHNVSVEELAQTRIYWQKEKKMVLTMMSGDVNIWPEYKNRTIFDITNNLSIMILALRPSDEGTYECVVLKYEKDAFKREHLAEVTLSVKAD"
readout_label = "CTLA4 MFI at 33.3 nM"
result = 7282

[[record]]
molecule = "E35D/V68M/K89N (protein) VIHVTKEVKEVATLSCGHNVSVEELAQTRIYWQKDKKMVLTMMSGDMNIWPEYKNRTIFDITNNLSIMILALRPSDEGTYECVVLKYENDAFKREHLAEVTLSVKAD"
readout_label = "CTLA4 MFI at 33.3 nM"
result = 24838

[[record]]
molecule = "E35D/M47L: variant CD80 IgV-Fc, IgV SEQ ID NO:208 (protein) VIHVTKEVKEVATLSCGHNVSVEELAQTRIYWQKDKKMVLTMMSGDLNIWPEYKNRTIFDITNNLSIVILALRPSDEGTYECVVLKYEKDAFKREHLAEVTLSVKAD"
readout_label = "CTLA4 MFI at 33.3 nM"
result = 48010

[[record]]
molecule = "E35D/M47V/N48K/V68M/K89N: variant CD80 IgV-Fc, IgV SEQ ID NO:465 (protein) VIHVTKEVKEVATLSCGHNVSVEELAQTRIYWQKDKKMVLTMMSGDVKIWPEYKNRTIFDITNNLSIMILALRPSDEGTYECVVLKYENDAFKREHLAEVTLSVKAD"
readout_label = "CTLA4 MFI at 33.3 nM"
result = 20884

[[record]]
molecule = "M47V/V68M/K89N (protein) VIHVTKEVKEVATLSCGHNVSVEELAQTRIYWQKEKKMVLTMMSGDVNIWPEYKNRTIFDITNNLSIMILALRPSDEGTYECVVLKYENDAFKREHLAEVTLSVKAD"
readout_label = "CTLA4 MFI at 33.3 nM"
result = 24787


Query: CTLA4 MFI at 33.3 nM; subject: E35D/M47V/V68M/L85Q/K89N (protein) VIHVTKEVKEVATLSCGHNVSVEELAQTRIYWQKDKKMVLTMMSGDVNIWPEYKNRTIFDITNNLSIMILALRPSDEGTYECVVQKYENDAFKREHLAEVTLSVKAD
30276

Which value of CTLA4 MFI at 33.3 nM has been reported for E35D/M47V/V68M/K89N (protein) VIHVTKEVKEVATLSCGHNVSVEELAQTRIYWQKDKKMVLTMMSGDVNIWPEYKNRTIFDITNNLSIMILALRPSDEGTYECVVLKYENDAFKREHLAEVTLSVKAD in the records?
29493
